target: His-Tagged hOGA (Homo sapiens); experiment: Human O-GlcNAcase enzyme inhibition assay; format: biochemical
Sequence (O60502 whole entry): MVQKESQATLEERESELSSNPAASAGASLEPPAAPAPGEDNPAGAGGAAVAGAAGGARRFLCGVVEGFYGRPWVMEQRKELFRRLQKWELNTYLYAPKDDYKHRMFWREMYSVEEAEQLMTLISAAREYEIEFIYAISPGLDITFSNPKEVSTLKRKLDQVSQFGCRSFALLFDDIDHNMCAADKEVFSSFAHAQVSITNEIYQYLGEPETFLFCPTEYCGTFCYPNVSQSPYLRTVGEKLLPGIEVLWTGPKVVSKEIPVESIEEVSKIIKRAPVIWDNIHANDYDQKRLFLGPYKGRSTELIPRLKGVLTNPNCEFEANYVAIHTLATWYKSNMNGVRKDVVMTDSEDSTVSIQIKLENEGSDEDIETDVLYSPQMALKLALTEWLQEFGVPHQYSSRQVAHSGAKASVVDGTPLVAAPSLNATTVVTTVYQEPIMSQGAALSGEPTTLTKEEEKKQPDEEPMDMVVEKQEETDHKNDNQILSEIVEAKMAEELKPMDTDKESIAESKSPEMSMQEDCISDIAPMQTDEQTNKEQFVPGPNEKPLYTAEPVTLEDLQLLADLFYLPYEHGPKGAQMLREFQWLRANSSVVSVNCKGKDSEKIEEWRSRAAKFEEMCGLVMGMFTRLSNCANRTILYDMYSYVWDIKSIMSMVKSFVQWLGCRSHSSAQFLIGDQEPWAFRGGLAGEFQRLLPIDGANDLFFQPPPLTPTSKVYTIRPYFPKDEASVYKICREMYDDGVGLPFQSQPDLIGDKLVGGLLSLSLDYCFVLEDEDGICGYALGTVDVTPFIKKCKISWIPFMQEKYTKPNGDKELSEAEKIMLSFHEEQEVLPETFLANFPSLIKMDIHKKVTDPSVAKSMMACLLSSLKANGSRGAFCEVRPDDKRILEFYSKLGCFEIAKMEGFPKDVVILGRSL
Task for the reader: assign each of the following molecules its reported IC50.

Kindly state the measured IC50 obtained for CC(=O)Nc1ncc(CN2CCC(Cc3ccccc3)CC2)s1 with His-Tagged hOGA (Homo sapiens). < 200 nM

Record CC(=O)Nc1ncc(CN2CCC(C#N)(c3ccccc3)CC2)s1 : what is its IC50 with His-Tagged hOGA (Homo sapiens)? > 10000 nM

What value of IC50 on His-Tagged hOGA (Homo sapiens) does CC(=O)Nc1ncc(CN2CCC(Cc3ccccc3)CC2C)s1 (centres unmarked) have? < 200 nM

Return IC50 measured with His-Tagged hOGA (Homo sapiens) given this molecule: CC(=O)Nc1ncc(CN2CCC(Cc3ccc(C)cc3)CC2)s1 < 200 nM

Entry COc1ccc(CC2CCN(Cc3cnc(NC(C)=O)s3)CC2)cc1 , system His-Tagged hOGA (Homo sapiens): what IC50 was measured? < 200 nM

Origin of the recorded values: patent US10301299B2
